For each of the molecules below, state its inhibition.
experimental-target: N-formyl peptide receptor 2 (Homo sapiens)
assay-summary: FPRL1 fluorescent ligand binding inhibitors, primary screen, selectivity assay for FPR ligand SAR project, cell-based, flow cytometry, HTS counterscreen (AID 725)
cond: FPRL1-expressing cells, active compounds read high, concentration not given here
The campaign covered roughly 1,300 compounds. Fewer than 10 were called active. The list is a sample of the results.
// units = %; emit number, no label

Returns the measured inhibition for the input molecule. Input: Cc1ccc(/C(O)=C2/C(=O)C(=O)NC2c2ccc3c(c2)OCO3)cc1 (stereo not given) 1.1

Returns the measured inhibition for the input molecule. Input: Cc1onc(-c2c(Cl)cccc2Cl)c1C(=O)N1CCCCCC1 -6.1

Returns the measured inhibition for the input molecule. Input: CC(O)CN1C(=O)C(=O)/C(=C(\O)c2ccccc2)C1c1cccnc1 (stereo not given) 1.7

Returns the measured inhibition for the input molecule. Input: CCOC(=O)c1cc(C(C)C)sc1NC(=O)CCCC(=O)O -4.7

Returns the measured inhibition for the input molecule. Input: O=C(Nc1cccc(C(=O)N(Cc2ccccc2)Cc2ccccc2)c1)[C@@H]1[C@H]2C[C@H]3[C@@H]1C(=O)O[C@H]3C2 3.8

Returns the measured inhibition for the input molecule. Input: COc1ccccc1C(CC(=O)NCc1cccs1)n1cccc1 (stereo not given) 12

Returns the measured inhibition for the input molecule. Input: Cc1cc(C)n(Cc2c(C(=O)N3CCC(C)CC3)noc2C)n1 18.2

Returns the measured inhibition for the input molecule. Input: CC(c1cccs1)N(Cc1ccco1)C(=S)Nc1ccccc1Cl (stereo not given) 10.4

Returns the measured inhibition for the input molecule. Input: CCCCn1c(=O)c2oc3ccccc3c2n(Cc2ccccc2F)c1=O -2.7

Returns the measured inhibition for the input molecule. Input: CCc1ccc(Oc2c(C(F)(F)F)oc3c(CN4CCOCC4)c(O)ccc3c2=O)cc1 -5.8

====

experimental-target: N-formyl peptide receptor 2 (Homo sapiens)
assay-summary: FPRL1 fluorescent ligand binding inhibitors, primary screen, selectivity assay for FPR ligand SAR project, cell-based, flow cytometry, HTS counterscreen (AID 725)
cond: FPRL1-expressing cells, active compounds read high, concentration not given here
The campaign covered roughly 1,300 compounds. Fewer than 10 were called active. A selection follows.
measure: inhibition (%)
// units = %; emit number, no label

Returns the measured inhibition for the input compound. Input: CCOC(=O)c1c(NC(=O)c2csc3c2CCCC3)sc2c1CCCC2 -7

Returns the measured inhibition for the input compound. Input: O=C(Oc1ccc2c(=O)c(Oc3ccccc3Br)c(C(F)(F)F)oc2c1)c1cccs1 -1.4

Returns the measured inhibition for the input compound. Input: CCC(=O)Oc1ccc2c(C)c(Cc3ccccc3)c(=O)oc2c1C -5.7

Returns the measured inhibition for the input compound. Input: COc1ccc(C2C(C(=O)c3ccco3)=C(O)C(=O)N2c2nnc(C)s2)cc1OC (configuration not stated) 1.1

Returns the measured inhibition for the input compound. Input: COc1ccc(OC)c(C2SCCN2S(=O)(=O)c2ccc(C)cc2)c1 (configuration not stated) 6.1

Returns the measured inhibition for the input compound. Input: CC(C)c1ccc(C2/C(=C(\O)c3ccccc3)C(=O)C(=O)N2c2nc3ccccc3s2)cc1 (configuration not stated) 0

Returns the measured inhibition for the input compound. Input: Cc1cc(C)c(NC(=O)CSc2nncn3c2cc2occc23)c(C)c1 12

====

experimental-target: N-formyl peptide receptor 2 (Homo sapiens)
assay-summary: FPRL1 fluorescent ligand binding inhibitors, primary screen, selectivity assay for FPR ligand SAR project, cell-based, flow cytometry, HTS counterscreen (AID 725)
cond: FPRL1-expressing cells, active compounds read high, concentration not given here
Screen size: about 1,300 compounds; fewer than 10 were called active. These entries were drawn from the full list.
For each of the molecules below, state its inhibition.
// units = %; emit number, no label

Returns the measured inhibition for the input molecule. Input: Cc1ccc(C2/C(=C(\O)c3ccc(F)cc3)C(=O)C(=O)N2CCN2CCOCC2)o1 (stereo unspecified) 5.6

Returns the measured inhibition for the input molecule. Input: COC(=O)c1c[nH]n2c(=O)c(C(C)C)c(C)nc12 -13.8

Returns the measured inhibition for the input molecule. Input: O=C(c1ccccc1Br)N(Cc1ccc(F)cc1)Cc1ccco1 -2

Returns the measured inhibition for the input molecule. Input: COc1ccc(-c2c(C)[nH]n3c(=O)c4c(nc23)CCCC4)cc1 -4.2

Returns the measured inhibition for the input molecule. Input: CCc1ccc(Oc2c(C(F)(F)F)oc3cc(OCC(=O)OC4CCCCC4)ccc3c2=O)cc1 1.4

Returns the measured inhibition for the input molecule. Input: O=C(c1ccc(Br)cc1)N(Cc1ccco1)Cc1ccccc1F 27.5

Returns the measured inhibition for the input molecule. Input: Cc1ccc(N2C(=O)C(=O)/C(=C(\O)c3ccc(Cl)cc3)C2c2cccnc2)cc1Br (stereo unspecified) 4.5

Returns the measured inhibition for the input molecule. Input: O=C(CCCC(=O)c1ccccc1)Nc1cc(F)ccc1F -27.4

Returns the measured inhibition for the input molecule. Input: Cc1cc(C)cc(N2C(=O)CSC2c2c(F)cccc2Cl)c1 (stereo unspecified) -8.8

Returns the measured inhibition for the input molecule. Input: Cc1cccc(C(=O)N(Cc2ccco2)Cc2ccccc2F)c1 14.7

Returns the measured inhibition for the input molecule. Input: NC(=O)c1c(NC(=O)C2C3C=CC(C3)C2C(=O)O)sc2c1CCCCC2 (stereo unspecified) 7.3

Returns the measured inhibition for the input molecule. Input: O=C1C(=O)N(Cc2cccnc2)C(c2ccc(F)cc2)/C1=C(\O)c1ccccc1 (stereo unspecified) 6.7

Returns the measured inhibition for the input molecule. Input: Cc1ccc(N2C(=O)C(=O)/C(=C(\O)c3ccc(Cl)cc3)C2c2ccc(O)cc2)cc1Br (stereo unspecified) -2.4

Returns the measured inhibition for the input molecule. Input: O=C(O)CCN1C(=O)C(=O)/C(=C(/O)c2ccccc2)C1c1ccc(Br)cc1 (stereo unspecified) -4.1

Returns the measured inhibition for the input molecule. Input: CCC(=O)N1c2ccccc2CC1C(=O)N1CCN(CC)CC1 (stereo unspecified) 5.1

Returns the measured inhibition for the input molecule. Input: C=CCN1C(=O)C2(/C(=C(/O)c3ccc(C)cc3)C(=O)C(=O)N2CC2CCCO2)c2ccccc21 (stereo unspecified) 0.9

Returns the measured inhibition for the input molecule. Input: Cc1ccc(N2C(=O)CSC2c2ccc(C(C)(C)C)cc2)cc1F (stereo unspecified) -16.2

Returns the measured inhibition for the input molecule. Input: Cc1nnc(N2C(=O)C(=O)/C(=C(/O)c3ccccc3)C2c2ccc(Cl)cc2)s1 (stereo unspecified) -5

Returns the measured inhibition for the input molecule. Input: COC(=O)c1c(NC(=O)c2cccc(Cl)c2)sc2c1CCCC2 4.4

Returns the measured inhibition for the input molecule. Input: CCN(CC)C(=O)c1c(NC(=O)c2cccc(C)c2)sc2c1CCCCC2 0.5

Returns the measured inhibition for the input molecule. Input: Cc1ccc(C2/C(=C(\O)c3ccccc3)C(=O)C(=O)N2CCN2CCNCC2)cc1 (stereo unspecified) 7.6

Returns the measured inhibition for the input molecule. Input: CN1C(=O)c2ccccc2C(C(=O)N2CCCCC2)C1c1cccs1 (stereo unspecified) -3.9

Returns the measured inhibition for the input molecule. Input: Cc1cc(=O)n2[nH]cc(C(=O)O)c2n1 -16.5

Returns the measured inhibition for the input molecule. Input: Cc1ccc(/C(O)=C2\C(=O)C(=O)N(c3nnc(C)s3)C2c2ccc(Cl)cc2)cc1 (stereo unspecified) -9.8

Returns the measured inhibition for the input molecule. Input: COc1ccccc1-c1c(C)oc2c(CN3CCCCC3C)c(O)ccc2c1=O (stereo unspecified) -3.9

Returns the measured inhibition for the input molecule. Input: Cc1ccc(C2/C(=C(\O)c3ccc(Cl)cc3)C(=O)C(=O)N2CCN2CCOCC2)cc1 (stereo unspecified) 0.3

Returns the measured inhibition for the input molecule. Input: CCOc1ccc(C2/C(=C(/O)c3ccccc3)C(=O)C(=O)N2c2ccc(C)c(Br)c2)cc1 (stereo unspecified) 1.2

Returns the measured inhibition for the input molecule. Input: CN1C(=O)c2ccccc2C(C(=O)N2CCCC2)C1c1cccs1 (stereo unspecified) -3

Returns the measured inhibition for the input molecule. Input: CCOc1ccc(/C(O)=C2\C(=O)C(=O)N(c3nnc(C)s3)C2c2ccc(Br)cc2)cc1 (stereo unspecified) 1.9

Returns the measured inhibition for the input molecule. Input: COC(=O)c1c(NC(=O)c2ccc(F)cc2)sc(C)c1C -4.9

Returns the measured inhibition for the input molecule. Input: CCOC(=O)c1c(NC(=O)c2ccccc2)sc2c1CCC(C)C2 (stereo unspecified) -3.5

Values from PubChem BioAssay AID725
